# System: L1210
# assay_comment: Antiproliferative activity against mouse L1210 cells assessed as reduction in cell viability by MTT assay
# Type: functional, cell-based
Property: IC50; scope: individual compounds

Form field, IC50 with L1210, item O=C(O)c1cn(C2CC2)c2cc(N3CCNCC3)c(F)cc2c1=O : > 150 µM

// assay L1210, entry CCn1cc(C(=O)O)c(=O)c2cc(F)c(N3CCNCC3)cc21 , IC50 value = > 150 µM

CCN1CCN(c2cc3c(cc2F)c(=O)c(-c2nnc(S)n2N)cn3C2CC2)CC1 tested on L1210 gave IC50: ≤ 50 µM
